Assay: reporter assay of Huesken 2005
Details: siRNA
Oligonucleotides are written 5' to 3', each unit as a sugar letter and its base; * is a phosphorothioate linkage, no mark a phosphodiester; rarer units and linkages stand in square brackets, end groups in braces. Plain capitals give the bases only. d = 2'-deoxy (DNA); r = 2'-OH (RNA)
Record 1 whenever normalised inhibition (eCFP-eYFP dual reporter) is at 70% or higher; record 0 when lower.

Past entries and their recorded results:
sense rCrArCrCrArGrArGrCrCrUrGrCrCrCrCrArCrCdTdT / antisense rGrGrUrGrGrGrGrCrArGrGrCrUrCrUrGrGrUrGdTdG
1
sense rCrArCrCrArGrArGrUrGrGrArArArCrUrCrArCdTdT / antisense rGrUrGrArGrUrUrUrCrCrArCrUrCrUrGrGrUrGdAdC
1
sense rCrUrUrGrCrCrUrCrUrGrArGrGrArArUrGrArGdTdT / antisense rCrUrCrArUrUrCrCrUrCrArGrArGrGrCrArArGdAdA
0
sense rUrGrUrGrUrGrCrUrUrCrCrUrCrUrCrCrCrArUdTdT / antisense rArUrGrGrGrArGrArGrGrArArGrCrArCrArCrAdGdT
1

Consider the record given below.
Assess whether reported normalised inhibition (eCFP-eYFP dual reporter) for sense rUrCrCrCrCrArUrArGrGrCrUrUrUrGrGrArGrCdTdT / antisense rGrCrUrCrCrArArArGrCrCrUrArUrGrGrGrGrAdTdA sits at 70% or higher.
0

====

Target: UBE2G1
Assay: reporter assay of Huesken 2005
Settings: siRNA
Oligonucleotides are written 5' to 3', each unit as a sugar letter and its base; * is a phosphorothioate linkage, no mark a phosphodiester; rarer units and linkages stand in square brackets, end groups in braces. Plain capitals give the bases only. d = 2'-deoxy (DNA); r = 2'-OH (RNA)
Record Fulfilled whenever normalised inhibition (eCFP-eYFP dual reporter) is at 50% or higher; record Not fulfilled when lower.

Past entries and their recorded results:
sense rUrGrCrGrArArArGrArArUrGrGrArGrGrGrArAdTdT / antisense rUrUrCrCrCrUrCrCrArUrUrCrUrUrUrCrGrCrAdGdC
Fulfilled
sense rUrUrUrCrUrGrCrArGrGrUrUrUrArArUrArGrAdTdT / antisense rUrCrUrArUrUrArArArCrCrUrGrCrArGrArArAdAdG
Fulfilled
sense rCrUrCrCrCrUrArUrCrCrArCrArCrUrGrUrGrGdTdT / antisense rCrCrArCrArGrUrGrUrGrGrArUrArGrGrGrArGdCdC
Fulfilled
sense rCrArGrGrUrUrUrArArUrArGrArUrGrArCrArAdTdT / antisense rUrUrGrUrCrArUrCrUrArUrUrArArArCrCrUrGdCdA
Fulfilled

Assess whether reported normalised inhibition (eCFP-eYFP dual reporter) for sense rArGrCrCrUrGrGrGrGrArArGrArUrArArGrUrAdTdT / antisense rUrArCrUrUrArUrCrUrUrCrCrCrCrArGrGrCrUdCdA sits at 50% or higher.
Fulfilled

Assess whether reported normalised inhibition (eCFP-eYFP dual reporter) for sense rCrArGrArGrGrArArCrGrCrUrGrGrCrUrCrCrCdTdT / antisense rGrGrGrArGrCrCrArGrCrGrUrUrCrCrUrCrUrGdGdC sits at 50% or higher.
Not fulfilled
